- assay.system: MASP-2 (CCP1-CCP2-SP) (Homo sapiens (Human))
- Sequence (O00187 445-686): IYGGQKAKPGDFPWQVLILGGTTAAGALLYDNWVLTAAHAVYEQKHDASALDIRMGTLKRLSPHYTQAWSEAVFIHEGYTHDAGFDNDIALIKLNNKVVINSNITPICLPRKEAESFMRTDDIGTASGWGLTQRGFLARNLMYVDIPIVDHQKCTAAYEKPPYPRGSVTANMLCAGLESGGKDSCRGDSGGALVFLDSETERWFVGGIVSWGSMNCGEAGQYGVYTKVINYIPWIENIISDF
- procedure.summary: biochemical
- Assay type: biochemical
- recorded.conditions: read-out: MASP-2 Ki
pKi: −log10 of the molar value. Counter-ions that a name gives are not always drawn.
measured.attribute: pKi

Query: Please state recorded pKi (tested on MASP-2 (CCP1-CCP2-SP) (Homo sapiens (Human))) of C[C@H](NC(=O)[C@H]1C[C@H](Cc2ccccc2-c2ccc(Cl)s2)CN1)C(=O)NCc1cc(Cl)ccc1-n1cnnn1 [compound 1409, Trifluoroacetate]
Result: > 6.30

Query: Please state recorded pKi (tested on MASP-2 (CCP1-CCP2-SP) (Homo sapiens (Human))) of Cc1nc(N)ccc1CNC(=O)[C@H](C)NC(=O)[C@H]1C[C@H](Cc2ccc(Cl)cc2Cl)CN1 [compound 1443, Dihydrochloride]
Result: > 6.30

Query: Please state recorded pKi (tested on MASP-2 (CCP1-CCP2-SP) (Homo sapiens (Human))) of C[C@H](NC(=O)[C@H]1C[C@@H](c2cccc(C(F)(F)F)c2)CN1)C(=O)NCc1ccc(C(=N)N)cc1
Result: > 6.30

Query: Please state recorded pKi (tested on MASP-2 (CCP1-CCP2-SP) (Homo sapiens (Human))) of N=C(N)c1ccc(CNC(=O)[C@@H]2CCN2C(=O)[C@@H](CC2CCCCC2)NCC(=O)O)cc1
Result: > 6.30

* * *

- assay.system: Thrombin (Homo sapiens (Human), UniProt P00734)
- procedure.summary: Thrombin inhibition (Ki)
- Type: biochemical
- recorded.conditions: read-out: Thrombin Ki
pKi: −log10 of the molar value.
measured.attribute: pKi

1) N=C(N)c1ccc2ccccc2c1	4.60 to 5.00

Query: Given the entry Cc1cccc2c(=O)oc(-c3ccccc3Cl)nc12 , report its measured pKi.
Result: > 5.00

Query: Given the entry Cc1ccc(S(=O)(=O)n2nc(OC(=O)c3ccco3)cc2N)cc1 , report its measured pKi.
Result: 4.60 to 5.00

* * *

- assay.system: MASP-2 (CCP1-CCP2-SP) (Homo sapiens (Human))
- procedure.summary: biochemical
- Type: biochemical
- recorded.conditions: MASP-2 inhibition versus thrombin
Counter-ions that a name gives are not always drawn.
measured.attribute: MASP-2 vs. thrombin selectivity

Consider the worked cases shown below.
1. CN[C@H](CCc1ccccc1)C(=O)N[C@@H](C)C(=O)NCc1ccc(C(=N)N)cc1	** (5.0 to 25-fold)
2. C[C@H](NC(=O)[C@@H](CCc1ccccc1)NC1CCCCC1)C(=O)NCc1ccc(C(=N)N)cc1 [compound 1130, Dihydrochloride]	−− (less than 1.0-fold)
3. N=C(N)c1ccc(CNC(=O)[C@@H]2CCCN2C(=O)[C@H](NCC(=O)O)C2CCCCC2)cc1	−− (less than 1.0-fold)
4. C[C@H](NC(=O)[C@H](N)Cc1csc2ccccc12)C(=O)NCc1ccc(C(=N)N)cc1	−− (less than 1.0-fold)

Query: Given the entry Cc1cccc(CC[C@@H](N)C(=O)N[C@@H](C)C(=O)NCc2ccc(C(=N)N)cc2)c1 , report its measured MASP-2 vs. thrombin selectivity.
Result: ** (5.0 to 25-fold)

Query: Given the entry C[C@H](NC(=O)[C@@H](CCc1ccccc1)NCc1ccccc1)C(=O)NCc1ccc(C(=N)N)cc1 , report its measured MASP-2 vs. thrombin selectivity.
Result: −− (less than 1.0-fold)

* * *

- assay.system: mMASP-2 (Mus musculus (Mouse))
- Sequence (Q91WP0 20-685): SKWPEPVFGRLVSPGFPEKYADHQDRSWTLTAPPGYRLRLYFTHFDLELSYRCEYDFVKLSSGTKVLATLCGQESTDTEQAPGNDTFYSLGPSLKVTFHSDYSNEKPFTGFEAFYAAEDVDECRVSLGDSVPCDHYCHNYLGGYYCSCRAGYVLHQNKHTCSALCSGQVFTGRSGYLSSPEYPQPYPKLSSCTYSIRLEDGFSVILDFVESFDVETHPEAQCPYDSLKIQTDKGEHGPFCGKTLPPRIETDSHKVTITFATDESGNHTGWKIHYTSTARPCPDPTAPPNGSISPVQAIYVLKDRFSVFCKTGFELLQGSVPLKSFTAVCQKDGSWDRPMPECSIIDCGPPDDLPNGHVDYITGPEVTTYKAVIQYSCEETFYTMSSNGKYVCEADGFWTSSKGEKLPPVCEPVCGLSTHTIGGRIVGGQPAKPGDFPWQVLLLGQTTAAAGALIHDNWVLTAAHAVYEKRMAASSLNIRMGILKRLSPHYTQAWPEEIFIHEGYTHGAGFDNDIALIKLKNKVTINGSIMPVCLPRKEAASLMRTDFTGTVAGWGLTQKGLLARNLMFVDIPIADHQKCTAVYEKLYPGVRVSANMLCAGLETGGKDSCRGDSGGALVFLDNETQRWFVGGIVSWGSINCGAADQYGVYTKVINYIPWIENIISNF
- procedure.summary: Enzymatic inhibition of mMASP-2
- Type: biochemical
- recorded.conditions: read-out: mMASP-2 Ki
Structures can show the parent of a compound that is named as a salt.
measured.attribute: Ki

Consider the worked cases shown below.
1. Cc1nc(N)ccc1CNC(=O)[C@H](C)NC(=O)[C@H]1C[C@H](Cc2cc(Cl)cc(Cl)c2)CN1 [compound 1435, Dihydrochloride]	< 500 nM
2. COc1cc(CNC(=O)[C@H](C)NC(=O)[C@H](N)CCc2ccccc2)cnc1N	> 25000 nM
3. Cc1nc(N)ccc1CNC(=O)[C@H](C)NC(=O)[C@H]1C[C@@H](Oc2ccccc2)CN1 [compound 1310, Dihydrochloride]	> 25000 nM
4. Cc1nc(N)ccc1CNC(=O)[C@H](C)NC(=O)[C@H]1C[C@H](Cc2ccc(Cl)s2)CN1 [compound 1454, Dihydrochloride]	< 500 nM
5. C[C@H](NC(=O)[C@H]1C[C@H](c2ccccc2)CN1)C(=O)NCc1cnc2sccc2c1 [compound 1471, Trifluoroacetate salt]	2500 to 10000 nM
6. Cc1nc(N)ccc1CNC(=O)Cn1c(C)cnc(NCCc2ccccc2)c1=O	2500 to 10000 nM

Query: Given the entry Cc1cc(Cl)cc(CNC(=O)[C@H](C)NC(=O)[C@H]2C[C@H](Cc3ccccc3-c3ccccc3)CN2)c1O [compound 1401, Hydrochloride] , report its measured Ki.
Result: 500 to 2500 nM

Query: Given the entry Cc1nc(N)ccc1CNC(=O)[C@H](C)NC(=O)[C@H]1C[C@H](Cc2csc(Cl)c2)CN1 [compound 1461, Dihydrochloride] , report its measured Ki.
Result: < 500 nM

Query: Given the entry C[C@H](NC(=O)[C@H]1C[C@H](c2ccccc2)CN1)C(=O)NCC1CCc2nc(N)sc2C1 (some centres unmarked) , report its measured Ki.
Result: > 25000 nM

Query: Given the entry C[C@H](NC(=O)[C@H]1C[C@](O)(c2ccccc2)CN1)C(=O)NCc1ccc(C(=N)N)cc1 , report its measured Ki.
Result: < 500 nM

Query: Given the entry C[C@H](NC(=O)[C@H]1C[C@H](Cc2ccccc2-c2ccccc2)CN1)C(=O)NCc1cnc2[nH]cc(Cl)c2c1 [compound 1393, Di-trifluoroacetate salt] , report its measured Ki.
Result: < 500 nM

Query: Given the entry Cc1nc(N)ccc1CNC(=O)[C@H](C)NC(=O)[C@H]1C[C@@H](c2cccc3ccccc23)CCN1 [compound 1297, Dihydrochloride] , report its measured Ki.
Result: < 500 nM

Query: Given the entry Cc1nc(N)ccc1CNC(=O)C(C)NC(=O)[C@H]1C[C@H](c2cccc(-c3ccccc3)c2)CN1 (stereo in doubt) [compound 1360, Di-trifluoroacetate salt] , report its measured Ki.
Result: < 500 nM

* * *

- assay.system: human α-thrombin (Homo sapiens (Human))
- procedure.summary: Enzymatic assay for thrombin (Boc-VPR-AMC substrate)
- Format: biochemical
- recorded.conditions: read-out: Thrombin Ki
Where a name gives a salt, the structure may show the parent alone.
measured.attribute: Ki

Consider the worked cases shown below.
1) C[C@H](NC(=O)[C@@H](CCc1ccccc1)NCc1ccc(C(N)=O)cc1)C(=O)NCc1ccc(C(=N)N)cc1 [compound 1268]	< 0.5 µM
2) N=C(N)c1ccc(CNC(=O)[C@@H]2CCN2C(=O)[C@H](N)C2CC2)cc1 [compound 1002]	< 0.5 µM
3) Cc1nc(N)ccc1CNC(=O)[C@H](C)NC(=O)[C@H]1C[C@H](c2ccccc2)CN1 [compound 1265]	> 25 µM
4) Cc1cnc(NCCc2ccccc2)c(=O)n1CC(=O)NCc1ccc2nc(N)[nH]c2c1 [compound 1492]	< 0.5 µM
5) CC(=O)Nc1ccc(CCN[C@H](CCc2ccccc2)C(=O)N[C@@H](C)C(=O)NCc2ccc(N)nc2C)cc1 [compound 1368, Dihydrochloride]	> 25 µM

Query: Please state recorded Ki (tested on human α-thrombin (Homo sapiens (Human))) of C[C@H](NC(=O)[C@@H](CCc1ccccc1)NCCc1ccc(Cl)cc1)C(=O)NCc1ccc(C(=N)N)cc1 [compound 1339, Di-trifluoroacetate salt]
Result: < 0.5 µM

Query: Please state recorded Ki (tested on human α-thrombin (Homo sapiens (Human))) of C[C@H](NC(=O)[C@H]1C[C@H](Cc2ccc(F)c(Cl)c2)CN1CC(=O)O)C(=O)NCc1cnc2c(c1)c(Cl)cn2C [compound 1484, Trifluoroacetate salt]
Result: > 25 µM

Query: Please state recorded Ki (tested on human α-thrombin (Homo sapiens (Human))) of Cc1nc(N)ccc1CNC(=O)[C@H](C)NC(=O)[C@H]1C[C@@H](c2cccc(CN)c2)CN1 [compound 1291]
Result: > 25 µM

Query: Please state recorded Ki (tested on human α-thrombin (Homo sapiens (Human))) of CC(=O)Nc1ccc(Cl)cc1CNC(=O)[C@H](C)NC(=O)[C@H]1C[C@H](c2ccccc2)CN1 [compound 1269]
Result: > 25 µM

Query: Please state recorded Ki (tested on human α-thrombin (Homo sapiens (Human))) of Cc1cc(Cl)cc(CNC(=O)[C@H](C)NC(=O)[C@H]2C[C@H](Cc3ccc(Br)cc3)CN2)c1O [compound 1374, Hydrochloride]
Result: > 25 µM

Query: Please state recorded Ki (tested on human α-thrombin (Homo sapiens (Human))) of C[C@H](NC(=O)[C@H]1C[C@H](c2ccccc2)CN1)C(=O)NCc1ccc(C(=N)NC(=O)OCc2ccccc2)cc1 [compound 1259]
Result: > 25 µM

Query: Please state recorded Ki (tested on human α-thrombin (Homo sapiens (Human))) of C[C@H](NC(=O)[C@@H](CCc1ccccc1)NCCc1ccccc1)C(=O)NCc1ccc(C(=N)N)cc1 [compound 1340, Dihydrochloride]
Result: < 0.5 µM

Query: Please state recorded Ki (tested on human α-thrombin (Homo sapiens (Human))) of Cc1nc(N)ccc1CNC(=O)Cn1c(C)cnc(NCCc2ccccc2)c1=O [compound 1488]
Result: < 0.5 µM
